System: rVSV-G-GFP
Type: cell-based, vesicular stomatitis virus (VSV)
REPORTED PROPERTY: rVSV-G-GFP infection inhibition (in words)

>>> reported("CO[C@H]1/C=C\\C=C(/C)C(=O)NC2=CC(=O)C(N)=C(C[C@@H](C)C[C@H](OC)[C@H](O)[C@@H](C)/C=C(\\C)[C@@H]1OC(N)=O)C2=O")
"moderate inhibition"
>>> reported("C[C@@H]1O[C@@H](O[C@@H]2C=C3CC[C@@H]4[C@H](CC[C@]5(C)[C@@H](c6ccc(=O)oc6)CC[C@]45O)[C@@]3(C)CC2)[C@H](O)[C@H](O)[C@H]1O [Proscillaridin, reference compound]")
"moderate inhibition"

* * *

Test system: VSV-eGFP-SARS-CoV-2
METHOD: microbe, parasite or virus in culture
Type: cell-based
TEST CONDITIONS: Severe acute respiratory syndrome coronavirus 2, SiHa, read-out: inhibition of VSV-eGFP-SARS-CoV-2 infection, 10 μM
Where a name gives a salt, the structure may show the parent alone.
Assign Y to entries whose inhibition at 10 µM meets or exceeds 90%; assign N to the rest.

Problem: Entry `C[C@H]1CCC/C=C/[C@@H]2C[C@H](O)C[C@H]2[C@H](O)/C=C/C(=O)O1` : is its inhibition at 10 µM no less than 90%?
Result: N

Problem: Form field: inhibition at 10 µM at least 90%? Entry: `CSC[S@+]([O-])C[C@H](CO)NC(=O)/C=C/c1c(C)[nH]c(=O)[nH]c1=O`
Result: Y

Problem: Record `CC[C@](C)(O)C(=O)O[C@H]1C(=O)O[C@@H]2C[C@H]3C(C)=C[C@H](O)[C@@H](O)[C@]3(C)[C@H]3[C@]4(O)OC[C@]32[C@@H]1[C@@H](C)[C@H]4O` ; criterion: inhibition at 10 µM no lower than 90%. Met?
Result: N

Problem: I'd appreciate it if you could say whether CC[C@]1(O)C[C@H]2CN(CCc3c([nH]c4ccccc34)[C@@](C(=O)OC)(c3cc4c(cc3OC)N(C=O)[C@H]3[C@@](O)(C(=O)OC)[C@H](OC(C)=O)[C@]5(CC)C=CCN6CC[C@]43[C@@H]65)C2)C1 [Vincristine sulfate, reference compound] has inhibition at 10 µM at least equal to 90%.
Result: N

Problem: Does the reported inhibition at 10 µM for `COC1=C(N)C(=O)c2nc(-c3nc(C(=O)O)c(C)c(-c4ccc(OC)c(OC)c4O)c3N)ccc2C1=O` fall at or above the 90% mark?
Result: Y

Problem: Hello, I need to know if CC(=O)O[C@@]1(C)C[C@@H]([C@H](O)CC2CC(=O)NC(=O)C2)C(=O)[C@@H](C)C1 [Acetoxycycloheximide] has measured inhibition at 10 µM not below 90%. Thanks!
Result: Y

Problem: Given the entry COc1ccc(/C=C/C(=O)c2ccccc2)cc1 [4-Methoxychalcone, reference compound] , answer whether its inhibition at 10 µM meets or surpasses 90%.
Result: N

Problem: Can COc1cccc2c1C(=O)c1c(O)c3c(c(O)c1C2=O)C[C@@](O)(C(C)=O)C[C@@H]3O[C@H]1C[C@H](N)[C@H](O)[C@H](C)O1 [Daunorubicin hydrochloride, reference compound] be said to have inhibition at 10 µM at or above 90%?
Result: N

Problem: Entry C[C@@H]1O[C@@H](O[C@@H]2C=C3CC[C@@H]4[C@H](CC[C@]5(C)[C@@H](c6ccc(=O)oc6)CC[C@]45O)[C@@]3(C)CC2)[C@H](O)[C@H](O)[C@H]1O [Proscillaridin, reference compound] : is its inhibition at 10 µM no less than 90%?
Result: Y

Problem: Quick check, inhibition at 10 µM >= 90%? `CC1=C2C(=CC(C)(C)[C@@H]2O)C(=O)[C@](C)(O)C12CC2`
Result: N

Attribution: paper PMC10373420
